# assay-text: Hydrophobic interaction chromatography (HIC)
# Assay type: physicochemical
# assay-context: hydrophobicity by HIC, full IgG
# Description: Antibodies were purified from cleared cell culture supernatants using Protein A chromatography (Protein A resin slurry, 4.5 mL, Bogen, Cat #18-0010-02). […] Purified antibody was quantified by absorbance at A280. […] The hydrophobicity was assessed with hydrophobic interaction chromatography (HIC) on a TSK gel Butyl-NPR, 4.6×100 mm with Butyl-NPR (Tosoh corporation) using a Waters HPLC 2695 system.
experimental-endpoint: Retention time

// Retention time value for 69A7: parent anti-CD70 antibody (U.S. Pat. No. 8,124,738B2), VH/VL SEQ ID NOs: 1 and 2 (antibody, V domains shown, Synthetic 69A7 VH amino acid sequence; Synthetic 69A7 VL amino acid sequence) VH: QVQLQESGPGLVKPSETLSLTCTVSGGSVSSDYYYWSWIRQPPGKGLEWLGYIYYSGSTNYNPSLKSRVTISVDTSKNQFSLKLRSVTTADTAVYYCARGDGDYGGNCFDYWGQGTLVTVSS VL: EIVLTQSPATLSLSPGERATLSCRASQSVSSYLAWYQQKPGQAPRLLIFDASNRATGIPARFSGSGSGTDFTLTISSLEPEDFAVYYCQQRSNWPLTFGGGTKVEIK : 8.83 min
